These entries and their values trace back to PubChem BioAssay (NCI).

Tested on: UO-31 renal
Assay: NCI-60 one-dose screen, 48 h (100 = growth as untreated, 0 = no growth, -100 = all killed)
Conditions: 10 µM unless noted
Compounds without any hit were thinned out: in the full panel of roughly 83,000, 20% have a hit.
# growth per record follows
Write it as a number; the unit % goes unstated.

Past entries and their recorded results:
| molecule | reading unit | growth |
| --- | --- | --- |
| Cc1csc(NC(=O)c2sc3nc(-c4cccs4)ccc3c2N)n1 | % | 88 |
| CCCCOC(=O)c1ccc(NC(=O)C(C)N2CCOCC2)cc1 (stereo not given) | % | 88.3 |
| CN(C)CN1CCN(c2ccc3nc(-c4ccc5nc(-c6ccc(C(F)(F)F)cc6)[nH]c5c4)[nH]c3c2)CC1 | % | 131 |
| C=C(C=O)[C@@H]1CC=C(C=O)CC1 | % | -41.7 |
| OCCCCc1nccc2c1[nH]c1ccccc12 | % | 95.1 |
| CN(C)CCOC(=O)Nc1ccc(Cl)cc1 | % | 71.2 |

// query Find the recorded growth belonging to Clc1ccc2[nH]c3c(NCCCN4CCOCC4)ncnc3c2c1 and report it.
// result 57.2

// query Query (molecule): CCCCNC(=O)NS(=O)(=O)c1ccc(N2N=C(c3ccc(C)cc3C)CC2c2ccc(N(C)C)cc2)cc1 (stereo not given) ; field requested: growth
// result 51.4

// query Quick check: growth of COc1cc(-c2cccc([N+](=O)[O-])c2)c(-c2nc(-c3ccccc3)c(-c3ccccc3)n2C2CC2)cc1OC ?
// result 37.7

// query Which growth reading was recorded for the molecule COc1ccc(OC)c(/C=C2\COc3ccc(O)c(O)c3C2=O)c1 ?
// result -25.8

// query Would you mind telling me what growth value was observed for CC(C)CCC[C@@H](C)[C@H]1CCC2C3=CCC4C(=O)C=CC(=O)C4C3CC[C@@]21C (stereo not given in full) ?
// result -67.9

// query For Cn1nnnc1-c1ccc(N)cc1 , what is its reported growth?
// result 79

// query What measured growth goes with C#C[C@]1(O)CC[C@H]2[C@@H]3CC=C4c5sc(N=C(N)N)nc5CC[C@]4(C)[C@H]3CC[C@@]21C ?
// result -77.7

// query Form field: reported growth of Cc1c(C(=O)O[C@H]2[C@@H]3[C@H](C)CC[C@H]3[C@]3(C)O[C@@]2(C2CCCCC2)C[C@H]3OC(=O)CO)ccc2ccccc12
// result -11.7
